Test system: Mus musculus
PROCEDURE_TEXT: Tested in vivo for cannabimimetic activity in mouse
Type: functional
Assignment: determine reported ED50 for the given compounds.

INSERT INTO measurements (smi, result) VALUES
  ('CC(=O)c1c(C)n(CCN2CCOCC2)c2ccccc12', '> 350 µmol/kg');

For each listed entry, give its ED50.
1. CCCCCn1c(C)c(C(=O)c2cccc3ccccc23)c2ccccc21
2. Cc1c(C(=O)c2cccc3ccccc23)c2ccccc2n1CCc1ccccc1
3. CCCCCCn1c(C)c(C(=O)c2cccc3ccccc23)c2ccccc21

Output:
1. 2.62 µmol/kg
2. > 257 µmol/kg
3. 14 µmol/kg

For each listed entry, give its ED50.
1. CCCCC[C@@H](C)n1c(C)c(C(=O)c2cccc3ccccc23)c2ccccc21
2. Cc1c(C(=O)c2cccc3ccccc23)c2cccc3c2n1[C@H](CN1CCOCC1)CO3

Output:
1: 21.5 µmol/kg; 2: 6.53 µmol/kg

---

Assignment: determine reported ED50 for the given molecules.
System: Mus musculus
PROCEDURE_TEXT: Tested in vivo for cannabimimetic activity in mouse
Assay type: functional
Give bare numbers, in µmol/kg.

Some molecules with known ED50 results, for comparison:
INSERT INTO assay_data (molecule, measured_parameter, unit_annotation, readout_number) VALUES
  ('CCCCCC(C)n1c(C)c(C(=O)c2cccc3ccccc23)c2ccccc21 (racemic)', 'ED50', 'µmol/kg', 35.6),
  ('CCCCCc1cc(O)c2c(c1)OC(C)(C)[C@@H]1CCC(C)=C[C@@H]21', 'ED50', 'µmol/kg', 4.7),
  ('Cc1c(C(=O)c2cccc3ccccc23)c2ccccc2n1CCC1CCCCC1', 'ED50', 'µmol/kg', 65.8);

Task: Provide ED50 value for the following molecule: CCCCCCC(C)(C)c1ccc([C@@H]2C[C@H](O)CC[C@H]2CCCO)c(O)c1
Output: 0.55

---

TARGET: Cannabinoid receptor (Homo sapiens, UniProt P34972+P21554)
PROCEDURE_TEXT: Binding affinity was determined in vitro against cannabinoid receptor by ability to displace [3H]CP-55940
Assay type: protein assay
Assignment: determine reported Ki for the given molecules.

For each listed entry, give its Ki.
1. CC(C)=CC(=O)c1c(C)n(CCN2CCOCC2)c2ccccc12
2. CCCCCCn1c(C)c(C(=O)c2cccc3ccccc23)c2ccccc21
3. CC(=O)c1c(C)n(CCN2CCOCC2)c2ccccc12

Output:
1. > 10000 nM
2. 48 nM
3. > 10000 nM

For each listed entry, give its Ki.
1. CCCCCn1c(C)c(C(=O)c2cccc3ccccc23)c2ccccc21
2. CCCCCCCn1c(C)c(C(=O)c2cccc3ccccc23)c2ccccc21
3. CCCCC[C@H](C)n1c(C)c(C(=O)c2cccc3ccccc23)c2ccccc21
4. CCCCC[C@@H](C)n1c(C)c(C(=O)c2cccc3ccccc23)c2ccccc21
5. Cc1c(C(=O)c2cccc3ccccc23)c2ccccc2n1CCc1ccccc1
6. Cc1c(C(=O)c2cccc3ccccc23)c2ccccc2n1CCC1CCCCC1
7. CCCCn1c(C)c(C(=O)c2cccc3ccccc23)c2ccccc21
8. CCCCCC(C)n1c(C)c(C(=O)c2cccc3ccccc23)c2ccccc21 (racemic)

Output:
["9.5 nM", "> 10000 nM", "72 nM", "81 nM", "1250 nM", "46 nM", "22 nM", "33 nM"]
